system: MST4; settings: concentration: 1 μM, replicates: in singlicate; n = 1;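 note: KINOMEscan kinase panel screen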
Property label: %Inh (%)
Express the result in % but write the number alone.

Below are worked cases with known answers.
Could you please provide reported %Inh for Oc1cc(Nc2ccnc3cc(I)ccc23)ccc1F [GW552771] ? Thanks! 0

Could you please provide reported %Inh for CC(C)c1nc(-c2cccc(NS(=O)(=O)c3c(F)cccc3F)c2F)c(-c2ccnc(Nc3ccc(N4CCOCC4)nc3)n2)s1 [GSK2008607] ? Thanks! 39

***
Could you please provide reported %Inh for O=C(Nc1n[nH]c2nc(-c3ccc(O)cc3)ccc12)C1CC1 [SB-710363] ? Thanks! 9
